# Tested on: Echinochloa crus-galli (L.) Beauv.
# protocol: Bioassay of herbicidal activity in greenhouse (further screening)
# Format: in vivo
# reported_conditions: pre-emergence; dose 7.5 g a.i./hm^2
measurement_kind: Growth inhibition rate, Pre-emergence treatment, Echinochloa crus-galli (L.) Beauv. (%)
Answer in %, number only, no unit symbol.

*Q* Write down Growth inhibition rate, Pre-emergence treatment, Echinochloa crus-galli (L.) Beauv. measured for item Cn1c(C(F)(F)F)cc(=O)n(-c2cc(C3=NOC(C)(COC(=O)C4CC4)C3)c(Cl)cc2F)c1=O (centres unmarked)
*A* 5

*Q* Given CC(C)C(=O)OCC1(C)CC(c2cc(-n3c(=O)cc(C(F)(F)F)n(C)c3=O)c(F)cc2Cl)=NO1 (centres unmarked) , respond with its Growth inhibition rate, Pre-emergence treatment, Echinochloa crus-galli (L.) Beauv..
*A* 10

*Q* // fetch Growth inhibition rate, Pre-emergence treatment, Echinochloa crus-galli (L.) Beauv. given entry Cn1c(C(F)(F)F)cc(=O)n(-c2cc(C3=NOC(C)(COS(C)(=O)=O)C3)c(Cl)cc2F)c1=O (centres unmarked)
*A* 5

*Q* Read off the recorded Growth inhibition rate, Pre-emergence treatment, Echinochloa crus-galli (L.) Beauv. for Cn1c(C(F)(F)F)cc(=O)n(-c2cc(C3=NOC(C)(COC(=O)COc4ccc(Cl)cc4Cl)C3)c(Cl)cc2F)c1=O (centres unmarked)
*A* 10

*Q* Report measured Growth inhibition rate, Pre-emergence treatment, Echinochloa crus-galli (L.) Beauv.; entry is CC(=O)OCC1(C)CC(c2cc(-n3c(=O)cc(C(F)(F)F)n(C)c3=O)c(F)cc2Cl)=NO1 (centres unmarked)
*A* 10

* * *

# System: Zinnia elegans Jacq.
# protocol: Bioassay of herbicidal activity in greenhouse (further screening)
# Format: in vivo
# reported_conditions: pre-emergence; dose 7.5 g a.i./hm^2
# Protocol: Determination of herbicidal activity of compounds of the present invention against weeds was carried out by the following procedures: Seeds of monocotyledonous and dicotyledonous weeds were sown in nutrition soil in paper pot (7 cm diameter), covered with soil in 1 cm and grown in the greenhouse under good growth conditions (temperature, atmospheric humidity, water supply). […]
measurement_kind: Growth inhibition rate, Pre-emergence treatment, Zinnia elegans Jacq. (%)
All answers are understood in %, so give the number only.

*Q* # return recorded Growth inhibition rate, Pre-emergence treatment, Zinnia elegans Jacq. for input Cn1c(C(F)(F)F)cc(=O)n(-c2cc(C3=NOC(C)(COC(=O)COc4ccc(Cl)cc4Cl)C3)c(Cl)cc2F)c1=O (centres unmarked) [Compound 83]
*A* 0

*Q* Identify measured Growth inhibition rate, Pre-emergence treatment, Zinnia elegans Jacq. associated with CC(C)C(=O)OCC1(C)CC(c2cc(-n3c(=O)cc(C(F)(F)F)n(C)c3=O)c(F)cc2Cl)=NO1 (centres unmarked) [Compound 46]
*A* 40

*Q* Indicate the recorded Growth inhibition rate, Pre-emergence treatment, Zinnia elegans Jacq. value for this compound: Cn1c(C(F)(F)F)cc(=O)n(-c2cc(C3=NOC(C)(COC(=O)C4CC4)C3)c(Cl)cc2F)c1=O (centres unmarked) [Compound 45]
*A* 20

*Q* Give the reported value of Growth inhibition rate, Pre-emergence treatment, Zinnia elegans Jacq. for this record: Cn1c(C(F)(F)F)cc(=O)n(-c2cc(C3=NOC(C)(COS(C)(=O)=O)C3)c(Cl)cc2F)c1=O (centres unmarked) [Compound 88]
*A* 20

*Q* Specify reported Growth inhibition rate, Pre-emergence treatment, Zinnia elegans Jacq. for the compound shown: CC(=O)OCC1(C)CC(c2cc(-n3c(=O)cc(C(F)(F)F)n(C)c3=O)c(F)cc2Cl)=NO1 (centres unmarked) [Compound 43]
*A* 0

* * *

# Test system: Setaria glauca (L.) Beauv.
# protocol: Bioassay of herbicidal activity in greenhouse (further screening)
# Type: in vivo
# reported_conditions: pre-emergence; dose 150 g a.i./hm^2
Answer each item with its documented Growth inhibition rate, Pre-emergence treatment, Setaria glauca (L.) Beauv..
Kindly answer with a numeric value in %, unit omitted.

*Q* # return recorded Growth inhibition rate, Pre-emergence treatment, Setaria glauca (L.) Beauv. for entry Cn1c(C(F)(F)F)cc(=O)n(-c2cc(C3=NOC(C)(COS(C)(=O)=O)C3)c(Cl)cc2F)c1=O (stereo not shown)
*A* 85

*Q* Read the entry Cn1c(C(F)(F)F)cc(=O)n(-c2cc(C3=NOC(C)(C(=O)O)C3)c(Cl)cc2F)c1=O (stereo not shown) and write its reported Growth inhibition rate, Pre-emergence treatment, Setaria glauca (L.) Beauv..
*A* 5

*Q* Return Growth inhibition rate, Pre-emergence treatment, Setaria glauca (L.) Beauv. for the following compound: CC(=O)OCC1(C)CC(c2cc(-n3c(=O)cc(C(F)(F)F)n(C)c3=O)c(F)cc2Cl)=NO1 (stereo not shown)
*A* 98

*Q* Answer with the recorded Growth inhibition rate, Pre-emergence treatment, Setaria glauca (L.) Beauv. for the compound listed here: CCOC(=O)C1(C)CC(c2cc(-n3c(=O)cc(C(F)(F)F)n(C)c3=O)ccc2Cl)=NO1 (stereo not shown)
*A* 10

*Q* Give Growth inhibition rate, Pre-emergence treatment, Setaria glauca (L.) Beauv. for the following compound: C#CCOC(=O)C1(C)CC(c2cc(-n3c(=O)cc(C(F)(F)F)n(C)c3=O)ccc2Cl)=NO1 (stereo not shown)
*A* 10

*Q* Return Growth inhibition rate, Pre-emergence treatment, Setaria glauca (L.) Beauv. (reported value) for this compound: CCCCOC(=O)C1(C)CC(c2cc(-n3c(=O)cc(C(F)(F)F)n(C)c3=O)ccc2Cl)=NO1 (stereo not shown)
*A* 10

*Q* Please indicate Growth inhibition rate, Pre-emergence treatment, Setaria glauca (L.) Beauv. recorded for Cn1c(C(F)(F)F)cc(=O)n(-c2cc(C3=NOC(C)(C(N)=O)C3)c(Cl)cc2F)c1=O (stereo not shown)
*A* 0

* * *

# Test system: Setaria glauca (L.) Beauv.
# protocol: Bioassay of herbicidal activity in greenhouse (further screening)
# Type: in vivo
# reported_conditions: post-emergence; dose 150 g a.i./hm^2
I'd be grateful if you could share measured Growth inhibition rate, Post-emergence treatment, Setaria glauca (L.) Beauv. for these entries.
Response body: numeric value in %, unit text excluded.

*Q* For the compound C#CCOC(=O)C1(C)CC(c2cc(-n3c(=O)cc(C(F)(F)F)n(C)c3=O)ccc2Cl)=NO1 (stereo not shown) , give its reported Growth inhibition rate, Post-emergence treatment, Setaria glauca (L.) Beauv..
*A* 75

*Q* Give me measured Growth inhibition rate, Post-emergence treatment, Setaria glauca (L.) Beauv., please, for this compound: Cn1c(C(F)(F)F)cc(=O)n(-c2cc(C3=NOC(C)(C(=O)O)C3)c(Cl)cc2F)c1=O (stereo not shown)
*A* 70

*Q* Consider the compound Cn1c(C(F)(F)F)cc(=O)n(-c2cc(C3=NOC(C)(COC(=O)COc4ccc(Cl)cc4Cl)C3)c(Cl)cc2F)c1=O (stereo not shown) and give its recorded Growth inhibition rate, Post-emergence treatment, Setaria glauca (L.) Beauv..
*A* 70

*Q* Output Growth inhibition rate, Post-emergence treatment, Setaria glauca (L.) Beauv. of CC(=O)OCC1(C)CC(c2cc(-n3c(=O)cc(C(F)(F)F)n(C)c3=O)c(F)cc2Cl)=NO1 (stereo not shown)
*A* 95

* * *

# System: Setaria glauca (L.) Beauv.
# protocol: Bioassay of herbicidal activity in greenhouse (further screening)
# Format: in vivo
# reported_conditions: post-emergence; dose 150 g a.i./hm^2
measurement_kind: Growth inhibition rate, Post-emergence treatment, Setaria glauca (L.) Beauv. (%)
The response must be a number in % with no trailing unit.

*Q* Give the measured Growth inhibition rate, Post-emergence treatment, Setaria glauca (L.) Beauv. for CSCCC(=O)OCC1(C)CC(c2cc(-n3c(=O)cc(C(F)(F)F)n(C)c3=O)c(F)cc2Cl)=NO1 (stereo not shown) [Compound 54]
*A* 70

*Q* Specify Growth inhibition rate, Post-emergence treatment, Setaria glauca (L.) Beauv. for Cn1c(C(F)(F)F)cc(=O)n(-c2cc(C3=NOC(C)(COS(C)(=O)=O)C3)c(Cl)cc2F)c1=O (stereo not shown) [Compound 88] and stop.
*A* 70

*Q* Tell us which Growth inhibition rate, Post-emergence treatment, Setaria glauca (L.) Beauv. value is on record for Cn1c(C(F)(F)F)cc(=O)n(-c2cc(C3=NOC(C)(COC(=O)C4CC4)C3)c(Cl)cc2F)c1=O (stereo not shown) [Compound 45]
*A* 85

*Q* Quickly give me recorded Growth inhibition rate, Post-emergence treatment, Setaria glauca (L.) Beauv. for CC(C)C(=O)OCC1(C)CC(c2cc(-n3c(=O)cc(C(F)(F)F)n(C)c3=O)c(F)cc2Cl)=NO1 (stereo not shown) [Compound 46]
*A* 80

* * *

# System: Echinochloa crus-galli (L.) Beauv.
# protocol: Bioassay of herbicidal activity in greenhouse (further screening)
# Type: in vivo
# reported_conditions: post-emergence; dose 15 g a.i./hm^2
For each of the molecules below, state its Growth inhibition rate, Post-emergence treatment, Echinochloa crus-galli (L.) Beauv..
Express your answer in %, writing the number without its unit.

*Q* Tell me measured Growth inhibition rate, Post-emergence treatment, Echinochloa crus-galli (L.) Beauv. for COCCOC(=O)C1(C)CC(c2cc(-n3c(=O)cc(C(F)(F)F)n(C)c3=O)c(F)cc2Cl)=NO1 (stereo not shown) please.
*A* 80

*Q* Please report Growth inhibition rate, Post-emergence treatment, Echinochloa crus-galli (L.) Beauv. for the following molecule: Cn1c(C(F)(F)F)cc(=O)n(-c2cc(C3=NOC(C)(C(=O)OCC(F)(F)F)C3)c(Cl)cc2F)c1=O (stereo not shown)
*A* 55

*Q* Name the recorded Growth inhibition rate, Post-emergence treatment, Echinochloa crus-galli (L.) Beauv. of the item CCCOC(=O)C1(C)CC(c2cc(-n3c(=O)cc(C(F)(F)F)n(C)c3=O)c(F)cc2Cl)=NO1 (stereo not shown) in your answer.
*A* 90

*Q* Check the records and state Growth inhibition rate, Post-emergence treatment, Echinochloa crus-galli (L.) Beauv. for CCCCOC(=O)C1(C)CC(c2cc(-n3c(=O)cc(C(F)(F)F)n(C)c3=O)c(F)cc2Cl)=NO1 (stereo not shown)
*A* 95
